- assayed-system: T1, Human PCSK9 Alexa Fluor 647 (human, UniProt Q8NBP7 31-692, limits assumed, Alexa Fluor 647 label (site not stated))
- T1 construct: Labelled tracer of the TR-FRET assay, 16 nM stock; also called proprotein convertase subtilisin/kexin type 9
- T1 sequence (Q8NBP7 31-692 limits assumed): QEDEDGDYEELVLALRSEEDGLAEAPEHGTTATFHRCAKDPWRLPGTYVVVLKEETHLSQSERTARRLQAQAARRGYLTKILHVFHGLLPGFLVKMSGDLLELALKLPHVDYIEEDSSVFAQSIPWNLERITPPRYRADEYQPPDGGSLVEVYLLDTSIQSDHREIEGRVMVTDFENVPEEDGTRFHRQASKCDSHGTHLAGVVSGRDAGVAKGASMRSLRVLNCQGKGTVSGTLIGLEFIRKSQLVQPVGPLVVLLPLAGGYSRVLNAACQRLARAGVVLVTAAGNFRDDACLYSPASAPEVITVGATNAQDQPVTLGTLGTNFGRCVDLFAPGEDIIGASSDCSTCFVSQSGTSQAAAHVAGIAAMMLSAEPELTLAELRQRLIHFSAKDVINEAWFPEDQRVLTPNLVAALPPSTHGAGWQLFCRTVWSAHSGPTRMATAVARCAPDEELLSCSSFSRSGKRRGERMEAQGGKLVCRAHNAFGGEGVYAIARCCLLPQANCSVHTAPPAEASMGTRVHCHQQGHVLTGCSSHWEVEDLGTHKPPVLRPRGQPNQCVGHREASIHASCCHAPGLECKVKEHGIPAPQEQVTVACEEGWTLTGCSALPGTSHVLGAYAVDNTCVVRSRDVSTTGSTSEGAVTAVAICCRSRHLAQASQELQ
- experiment-summary: TR-FRET competition: PCSK9-Alexa Fluor 647 vs LDLR ECD-Eu kryptate
Bridge positions count the residues as written; N and C are the ends. Square brackets hold non-standard residues; d marks the D form. Phe(4-CF3) = N[C@@H](Cc1ccc(C(F)(F)F)cc1)C(=O)O; Bip = N[C@@H](Cc1ccc(-c2ccccc2)cc1)C(=O)O; NMeF = CN[C@@H](Cc1ccccc1)C(=O)O; NMeA = CN[C@@H](C)C(=O)O
Would you mind telling me the reported pIC50 of each entry?
Conceptually, pIC50 converts a concentration in mol/L into minus its log10.

## Input Which pIC50 reading was recorded for the binder {CH2CO}-FVDTT[Bip][NMeA][Bip][NMeA]ESPCG-NH2 (thioether N-13; SMILES CC(C)[C@@H]1NC(=O)[C@H](Cc2ccccc2)NC(=O)CSC[C@@H](C(=O)NCC(N)=O)NC(=O)[C@@H]2CCCN2C(=O)[C@H](CO)NC(=O)[C@H](CCC(=O)O)NC(=O)[C@H](C)N(C)C(=O)[C@H](Cc2ccc(-c3ccccc3)cc2)NC(=O)[C@H](C)N(C)C(=O)[C@H](Cc2ccc(-c3ccccc3)cc2)NC(=O)[C@H]([C@@H](C)O)NC(=O)[C@H]([C@@H](C)O)NC(=O)[C@H](CC(=O)O)NC1=O, also called 1-10; Ex. No. 1-10) [Ac*-F-V-D-T-T-B-(N-Me)A-B-(N-Me)A-E-S-P-C*-G-NH2] ?
## Output 8.22

## Input Reported pIC50, binder {CH2CO}-FVDTTS[NMeF][Phe(4-CF3)][NMeA]ESPCG-NH2 (thioether N-13; SMILES CC(C)[C@@H]1NC(=O)[C@H](Cc2ccccc2)NC(=O)CSC[C@@H](C(=O)NCC(N)=O)NC(=O)[C@@H]2CCCN2C(=O)[C@H](CO)NC(=O)[C@H](CCC(=O)O)NC(=O)[C@H](C)N(C)C(=O)[C@H](Cc2ccc(C(F)(F)F)cc2)NC(=O)[C@H](Cc2ccccc2)N(C)C(=O)[C@H](CO)NC(=O)[C@H]([C@@H](C)O)NC(=O)[C@H]([C@@H](C)O)NC(=O)[C@H](CC(=O)O)NC1=O, also called 1-6; Ex. No. 1-6) [Ac*-F-V-D-T-T-S-(N-Me)F-(p-CF3)F-(N-Me)A-E-S-P-C*-G-NH2] : ____
## Output 7.92
